- test_target: HLA-A*69:01
- assay_details: IEDB peptide-MHC binding, purified MHC/direct/fluorescence; filed as Kd, often an IC50 or EC50 that approximates it; bounds were set here for any values at or beyond the usual limits of such assays
- measurement_context: source organism: Influenza A virus (A/swine/Italy/809/1989(H3N2))
value_kind: Kd

Specify reported Kd for the sequence shown: EEIRRIWRQ
≥ 20 µM

###

- test_target: HLA-A*26:01
- assay_details: IEDB peptide-MHC binding, purified MHC/competitive/radioactivity; filed as Kd, often an IC50 or EC50 that approximates it; bounds were set here for any values at or beyond the usual limits of such assays
- measurement_context: source organism: SARS coronavirus Tor2
value_kind: pKd
Worth noting: pKd values are minus log10 of concentrations stated in mol/L.

Send back HLA-A*26:01 pKd of LFFFVYENAF only.
4.84
